# Tested on: SJSA-1 cells
# assay.protocol: Cell lysis by peptidomimetic macrocycles (LDH release)
# Format: cell-based
# condition.parameters: 50 μM, SJSA-1, 1 h
Bridge positions count the residues as written; N and C are the ends. Square brackets hold non-standard residues; d marks the D form. Peptide text beside a SMILES is read from it. R8 = C=CCCCCCC[C@@](C)(N)C(=O)O; S5 = C=CCCC[C@](C)(N)C(=O)O
observed.property: 50 μM % Lysed cells (1 h LDH) (%)
Number only, in %; omit the unit.

Query CC(=O)N[C@@H](CC(C)C)C(=O)N[C@H](C(=O)N[C@@H](Cc1ccccc1)C(=O)N[C@]1(C)CCCCCCC=CCCC[C@@](C)(C(=O)N[C@@H](C)C(=O)N[C@@H](Cc2c[nH]cn2)C(=O)N[C@@H](Cc2ccccc2)C(=O)N[C@@H](C)C(N)=O)NC(=O)[C@H](CC(C)C)NC(=O)[C@H](CCC(N)=O)NC(=O)[C@H](C)NC(=O)[C@H](Cc2c[nH]c3ccccc23)NC(=O)[C@H](Cc2c[nH]cn2)NC(=O)[C@H](C)NC1=O)[C@@H](C)O [compound 183] (Ac-LTF[R8]AHWAQL[S5]AHFA-NH2; staple 4-11) yields 50 μM % Lysed cells (1 h LDH) of 3

Reference source: patent US20200369728A1
